Tested on: AM24 protein
METHOD NOTES: Evaluation of the nitrile hydratase activity of AM24 protein (2): substrate specificity
Assay type: biochemical, Rhizobium sp. MCI2643
CONDITION NOTES: activity defined as 100 when acrylonitrile is the substrate; 0.2% (v/v) nitrile solution, 25° C., 5 minutes, pH 7.0; amide measured by HPLC
The compounds listed here are annotated with their Specific activity (%) (relative activity of each substrate).
METRIC: Specific activity (%) (relative activity of each substrate)

CHEMICAL SMILES: N#Cc1cccnc1
REPORTED MEASUREMENT: 9

CHEMICAL SMILES: CCC#N
REPORTED MEASUREMENT: 59

CHEMICAL SMILES: C=C(C)C#N
REPORTED MEASUREMENT: 143

CHEMICAL SMILES: C=CC#N
REPORTED MEASUREMENT: 100

CHEMICAL SMILES: CC(C)C#N
REPORTED MEASUREMENT: 28

CHEMICAL SMILES: CCCC#N
REPORTED MEASUREMENT: 152

CHEMICAL SMILES: N#CCCl
REPORTED MEASUREMENT: 671

CHEMICAL SMILES: N#Cc1ccccc1
REPORTED MEASUREMENT: 251

CHEMICAL SMILES: N#CCC(N)=O
REPORTED MEASUREMENT: 143

CHEMICAL SMILES: CC=CC#N
REPORTED MEASUREMENT: 34

CHEMICAL SMILES: CC#N
REPORTED MEASUREMENT: 47
